Reported MIC is given for each of the following molecules.
Tested on: Mycobacterium tuberculosis variant bovis BCG
Experiment: Antimycobacterial activity against dormant stage of Mycobacterium bovis BCG ATCC 35734 measured on day 12 by nitrate reductase assay
Type: functional, organism-based
Conditions: ATCC 35734, 288 h
Output spec: scalar in µg/mL, unitless text.

Consider the following illustrative entries.
COc1ccccc1-c1nnc(-c2sc(-c3cccnc3)nc2C)o1
3.95
Cc1nc(-c2cccnc2)sc1-c1nnc(-c2ccccc2[N+](=O)[O-])o1
5.89

Let us move to another entry and its MIC.
I have this molecule here, "Cc1nc(-c2cccnc2)sc1-c1nnc(Cc2ccccc2)o1" , and I need its recorded MIC.
10.4

* * *

Tested on: Mycobacterium tuberculosis variant bovis BCG
Assay: Antimycobacterial activity against dormant stage of Mycobacterium bovis BCG ATCC 35734 measured on day 12 by nitrate reductase assay
Format: functional, organism-based
Details: ATCC 35734, 288 h
readoutKind: MIC

Worked cases, answers included:
Cc1nc(-c2cccnc2)sc1-c1nnc(-c2ccc(O)cc2)o1
> 30 µg/mL
Cc1cccc(-c2nnc(-c3sc(-c4cccnc4)nc3C)o2)c1
> 30 µg/mL

Recorded MIC for "Cc1nc(-c2cccnc2)sc1-c1nnc(-c2ccccc2)o1" , please?
> 30 µg/mL

* * *

System: Mycobacterium tuberculosis variant bovis BCG
Test: Antimycobacterial activity against dormant stage of Mycobacterium bovis BCG ATCC 35734 measured on day 12 by nitrate reductase assay
Format: functional, organism-based
Conditions: ATCC 35734, 288 h
readoutKind: MIC

Use the examples below as a reference point.
Cc1ccc(-c2nnc(-c3sc(-c4cccnc4)nc3C)o2)cc1
> 30 µg/mL
Cc1nc(-c2cccnc2)sc1-c1nnc(-c2ccc([N+](=O)[O-])cc2)o1
> 30 µg/mL

# evaluate next
Hello, I am looking for reported MIC with Mycobacterium tuberculosis variant bovis BCG for "Cc1nc(-c2cccnc2)sc1-c1nnc(-c2cccc(Cl)c2Cl)o1" . Could you help?
> 30 µg/mL

Values from ChEMBL document CHEMBL3822409
